Every entry's value here was drawn from patent US20240251792A1.

pest or weed control at 1000 g/ha for assorted compounds
# Test system: AMARE
# test_name: Pre-emergence biological efficacy (Table 3)
# Format: in vivo
# test_settings: Amaranthus retroflexus, 312 h, 1000 g/ha, after 13 days, read-out: evaluation (100=total damage to plant; 0=no damage to plant)

>  <molecular_string>
N#Cc1c(F)cccc1C(F)(F)C(=O)O

>  <pest or weed control at 1000 g/ha>
40%

$$$$
>  <molecular_string>
Nc1cc(Cl)cc(C(F)(F)C(=O)O)c1Cl

>  <pest or weed control at 1000 g/ha>
40%

$$$$

Fill blank: measured pest or weed control at 1000 g/ha of the compound N#Cc1cccc(C(F)(F)C(=O)O)c1F is ____.
80%

Cool, now COc1cccc(C(F)(F)C(=O)O)c1F
80%

Would you mind doing O=C(O)C(F)(F)c1c(Cl)ccc2ccccc12 as well?
80%

* * *

# System: weeds and/or crops
# test_name: Post-emergence biological efficacy (Table 4)
# Type: in vivo
# test_settings: Setaria faberi, 312 h, SETFA, 1000 g/ha, evaluated after 13 days, read-out: damage to plant SETFA (100=total damage; 0=no damage)
observation_type: pest or weed control at 1000 g/ha (%)
Kindly provide the numeric value in % only, without the unit symbol.

>  <molecule>
O=C(O)C(F)(F)c1c(Cl)ccc2cc(Cl)cnc12 [Compound 1-418]

>  <experimental_system>
weeds and/or crops

>  <result>
0

$$$$
>  <molecule>
COc1cccc(C(F)(F)C(=O)O)c1F [Compound 1-190]

>  <experimental_system>
weeds and/or crops

>  <result>
20

$$$$
>  <molecule>
O=C(O)C(F)(F)c1cccc2ccccc12 [Compound 1-397, 2,2-Difluoro-2-(1-naphthyl)acetic acid]

>  <experimental_system>
weeds and/or crops

>  <result>
10

$$$$

What does the record list as pest or weed control at 1000 g/ha for O=C(O)C(F)(F)c1ccccc1OC(F)(F)F [Compound 1-465] ?
30

Same read-out for O=C(O)C(F)(F)c1cccc(Cl)c1C1CC1 [Compound 1-428] ?
0

Repeat with COc1c(C)cccc1C(F)(F)C(=O)O [Compound 1-463]
30

Can you check Cc1cccc(C(F)(F)C(=O)O)c1C#N [Compound 1-462] next?
20

Another molecule: Cc1c(C#N)cccc1C(F)(F)C(=O)O [Compound 1-244]
70

Next molecule up: COC(=O)C(F)(F)c1c(Cl)ccc(Cl)c1OC [Compound 2-326]
0

Further, for COC(=O)c1c(Cl)cccc1C(F)(F)C(=O)O [Compound 1-444] ?
20

* * *

# System: weeds and/or crops
# test_name: Post-emergence biological efficacy (Table 4)
# Type: in vivo
# test_settings: Abutilon theophrasti, 312 h, ABUTH, 1000 g/ha, evaluated after 13 days, read-out: damage to plant ABUTH (100=total damage; 0=no damage)
observation_type: pest or weed control at 1000 g/ha

Below are worked cases with known answers.
>  <molecule>
O=C(O)C(F)(F)c1c(F)ccc2cccnc12 [Compound 1-406]

>  <pest or weed control at 1000 g/ha>
70%

$$$$
>  <molecule>
CCOC(=O)C(F)(F)c1c(F)ccc(F)c1O [Compound 3-297]

>  <pest or weed control at 1000 g/ha>
10%

$$$$
>  <molecule>
COc1c(F)ccc(F)c1C(F)(F)C(=O)O [Compound 1-314]

>  <pest or weed control at 1000 g/ha>
0%

$$$$
>  <molecule>
O=C(O)C(F)(F)c1cccc(Cl)c1[N+](=O)[O-] [Compound 7-250]

>  <pest or weed control at 1000 g/ha>
90%

$$$$
>  <molecule>
Nc1c(Cl)cccc1C(F)(F)C(=O)O [Compound 1-252]

>  <pest or weed control at 1000 g/ha>
80%

$$$$
>  <molecule>
O=C(O)C(F)(F)c1cccc2cccnc12 [Compound 1-403]

>  <pest or weed control at 1000 g/ha>
80%

$$$$

Now consider the entry below.
Give the measured pest or weed control at 1000 g/ha of O=C(O)C(F)(F)c1cc(Cl)cc([N+](=O)[O-])c1Cl [Compound 1-238] .
0%
